# Assay Explanation: UVB and UVA molar absorptivities in chloroform
# Assay type: physicochemical
# Test Context: Amax in 320–400 nm, 0.01 mg/ml in chloroform
Reported UVAMAX Molar Absorptivity values are given for each entry in this list.
Answer with the value's number alone.

>>> print(df.to_string())
                                   compound  reading
0    CCCCCCCCCCCCCCCCCCNC(=S)NCc1cccc(OC)c1      0.0
1                  C=CCNC(=S)NCc1cccc(OC)c1      0.0
2     COc1ccc(C(=O)NC(=S)NCc2cccc(OC)c2)cc1     1420
3              CCCCCCCCNC(=S)NCc1cccc(OC)c1      0.0
4  O=C(O)/C=C/c1ccccc1 [trans-cinnamic acid, reference compound]       54

[in] Name the recorded UVAMAX Molar Absorptivity for COc1cccc(CNC(=S)NCc2ccccc2)c1 .
[out] 0.0

[in] Name the recorded UVAMAX Molar Absorptivity for COc1cccc(CNC(=S)NCc2cccc(OC)c2)c1 .
[out] 0.0

[in] Name the recorded UVAMAX Molar Absorptivity for CCCCCCCCCCCCNC(=S)NCc1cccc(OC)c1 .
[out] 0.0

* * *

Reported log10 solubility at 4 h values are given for each entry in this list.
# Assay Explanation: Solubility in refined meadowfoam seed oil (HPLC)
# Format: physicochemical
# Test Context: oil or lipid, thermodynamic from solid, heated to 50° C. for 4 h, cooled to room temperature overnight, read-out: Solubility at 50° C.
Please be aware that the numbers have been log10-transformed from solubility at 4 h in µg/mL.

                                 molecule        recorded_endpoint  reading
0                C=CCNC(=S)NCc1cccc(OC)c1  log10 solubility at 4 h     2.99
1           COc1cccc(CNC(=S)NCc2ccccc2)c1  log10 solubility at 4 h     3.02
2  CCCCCCCCCCCCCCCCCCNC(=S)NCc1cccc(OC)c1  log10 solubility at 4 h     2.17
3            CCCCCCCCNC(=S)NCc1cccc(OC)c1  log10 solubility at 4 h     3.40
4       COc1cccc(CNC(=S)NCc2cccc(OC)c2)c1  log10 solubility at 4 h     3.55
5   COc1ccc(C(=O)NC(=S)NCc2cccc(OC)c2)cc1  log10 solubility at 4 h     3.29

Consider the record given below.
[in] Name the recorded log10 solubility at 4 h for CCCCCCCCCCCCNC(=S)NCc1cccc(OC)c1 .
[out] 2.96

* * *

# Assay Explanation: UVB and UVA molar absorptivities in chloroform
# Format: physicochemical
# Test Context: Amax in 280–320 nm, 0.01 mg/ml in chloroform
# Protocol: The compounds synthesized in Example 3 were tested to determine their ability to absorb […] UVA light. UV spectra of quantitatively weighed and diluted samples (0.01 mg/ml) in chloroform were scanned from 244–450 nm at 240 nm/min on a Beckman DU 640 spectrophotometer (Beckman Coulter, Inc., Fullerton, Calif.). […]
Recorded Endpoint: UVBMAX Molar Absorptivity

                                   compound  reading
0  O=C(O)/C=C/c1ccccc1 [trans-cinnamic acid, reference compound]    22350
1     COc1ccc(C(=O)NC(=S)NCc2cccc(OC)c2)cc1    34090
2             COc1cccc(CNC(=S)NCc2ccccc2)c1     2357
3                  C=CCNC(=S)NCc1cccc(OC)c1     2852
4         COc1cccc(CNC(=S)NCc2cccc(OC)c2)c1     5367

[in] Name the recorded UVBMAX Molar Absorptivity for CCCCCCCCNC(=S)NCc1cccc(OC)c1 .
[out] 2999

[in] Name the recorded UVBMAX Molar Absorptivity for CCCCCCCCCCCCNC(=S)NCc1cccc(OC)c1 .
[out] 2625

[in] Name the recorded UVBMAX Molar Absorptivity for CCCCCCCCCCCCCCCCCCNC(=S)NCc1cccc(OC)c1 .
[out] 850
